# Tested on: SN12C renal
# Measurement Protocol: NCI tumour cell line growth inhibition, 48 h; in the data active = GI50 below about 0.43 µM; inactive = the rest
Valid outcomes are listed here; reply with one: active, inactive

CC(=O)[CH-]C(=O)c1ccccc1.CC(=O)[CH-]C(=O)c1ccccc1.CC1(C)OCC(C2OC3OC(C)(C)OC3C2[O-])O1.CC1(C)OCC(C2OC3OC(C)(C)OC3C2[O-])O1.[Ti+4] (centres undefined); inactive

Query: Hi, sorry to bother you, what did the test record for COc1ccc(-c2nc(Nc3ccc(-c4nc5ccccc5[nH]4)cc3)nc(N3CCOCC3)n2)cc1 ?
Response: inactive

Query: Record lookup: outcome of this test for NC1CCC(Nc2nc(NCc3cc(Cl)ccc3O)c3ncn(C4CCCC4)c3n2)CC1 (centres undefined) ?
Response: active

Query: Which outcome was assigned to CC(C)(CCN=C(N)Nc1ccccn1)c1ccc(C(F)(F)F)cc1 in this test?
Response: inactive

Query: Answer briefly: the call reported for CNc1cc2nc3cc(NC)c(C)cc3cc2cc1C in this assay.
Response: inactive

Query: recorded result category for Cc1[nH]c(C(=O)Nc2ccccc2OC2CCNCC2)c(Cl)c1Cl in this test
Response: inactive

Query: Tell me the assay call for CO[C@]12C=C/C(=C(/C(=O)OCc3cccnc3)C(=O)CCCCCCCC[C@@]3(OC)C=C/C(=C(/C(=O)OCc4cccnc4)C(=O)CCCCCCCC1)O3)O2 please.
Response: inactive

Query: Dear all, I need the recorded test outcome for NCCCCCCCCCCCn1c2c(c3ccccc3c1=O)C(=O)c1ccccc1-2 , thank you.
Response: inactive

Query: Just curious, what result did CN(C)CCC=C1c2ccccc2C(C)(C)c2ccccc21 get here?
Response: inactive

Ref: PubChem BioAssay (NCI)
